Data provenance: PubChem BioAssay (Tox21)

target: 5-hydroxytryptamine receptor 2A (Homo sapiens) (UniProt P28223); assay: 5-hydroxytryptamine receptor 2A (HTR2A) small molecule agonists, cell-based qHTS assay (AID 1963587); settings: HTR2A-CHO cells, calcium flux fluorescence, agonist mode; series mostly up to 76.8 µM; also: nearly all actives have a fitted effect of over 30% in size
Sequence (P28223 whole entry, looked up): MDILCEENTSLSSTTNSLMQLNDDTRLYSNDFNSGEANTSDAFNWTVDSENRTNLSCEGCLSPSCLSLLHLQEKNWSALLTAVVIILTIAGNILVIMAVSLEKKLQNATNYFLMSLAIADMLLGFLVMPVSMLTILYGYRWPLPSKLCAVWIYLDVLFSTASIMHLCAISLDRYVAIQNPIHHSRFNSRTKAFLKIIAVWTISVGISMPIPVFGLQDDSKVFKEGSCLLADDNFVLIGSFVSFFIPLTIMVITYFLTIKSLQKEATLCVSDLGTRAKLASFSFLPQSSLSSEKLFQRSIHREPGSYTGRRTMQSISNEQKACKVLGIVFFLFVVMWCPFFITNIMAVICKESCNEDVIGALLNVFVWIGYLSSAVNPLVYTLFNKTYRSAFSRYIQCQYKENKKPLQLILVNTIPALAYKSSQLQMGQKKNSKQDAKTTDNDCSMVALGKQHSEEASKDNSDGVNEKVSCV
Inconclusive results are not listed. Calls of active or inactive are those of the source. Calls follow the shape of the full dose curve.
Possible outcomes: active, inactive

{"MOLECULE": "Cc1nc2ccc(CN(C)c3ccc(C(=O)N[C@@H](CCC(=O)O)C(=O)O)s3)cc2c(=O)[nH]1", "GROUP": "inactive"}
{"MOLECULE": "C#CCN(C)CCCOc1ccc(Cl)cc1Cl", "GROUP": "inactive"}
{"MOLECULE": "c1ccccc1", "GROUP": "inactive"}
{"MOLECULE": "O=C(O)COCCN1CCN(C(c2ccccc2)c2ccc(Cl)cc2)CC1 (stereo not drawn)", "GROUP": "inactive"}
{"MOLECULE": "COc1ccc(-c2cc(=S)ss2)cc1", "GROUP": "inactive"}
{"MOLECULE": "O=C(O)c1ccc2cc(C(=O)O)ccc2c1", "GROUP": "inactive"}
{"MOLECULE": "CC(=O)OC1C2(C)CCC(C2)C1(C)C (stereo not drawn)", "GROUP": "inactive"}
{"MOLECULE": "CCCCCCCCCCC=O", "GROUP": "inactive"}
{"MOLECULE": "CC(S)C(C)S (stereo not drawn)", "GROUP": "inactive"}
{"MOLECULE": "COc1nc(C)nc(N)n1", "GROUP": "inactive"}
{"MOLECULE": "CCCc1ccc(OCC(=O)N2CCN(C(=O)COc3ccc(CCC)cc3OC)CC2)c(OC)c1", "GROUP": "inactive"}
{"MOLECULE": "O=C(c1ccccc1)c1ccc(O)cc1", "GROUP": "inactive"}
{"MOLECULE": "CN(C)CCOC(c1ccccc1)c1ccc(Br)cc1 (stereo not drawn)", "GROUP": "inactive"}
{"MOLECULE": "CCCCCCCCCCCCOCCOCCOCCOCCOCCOCCOCCOCCOCCO", "GROUP": "inactive"}
{"MOLECULE": "O=C1C=CC(=O)N1c1ccc(Cc2ccc(N3C(=O)C=CC3=O)cc2)cc1", "GROUP": "active"}
{"MOLECULE": "O=C[C@@H](O)[C@H](O)[C@H](O)CO", "GROUP": "inactive"}
{"MOLECULE": "CO", "GROUP": "inactive"}
{"MOLECULE": "CC(O)CC(C)O (stereo not drawn)", "GROUP": "inactive"}
{"MOLECULE": "C=CC(C)=CCC=C(C)C", "GROUP": "inactive"}
{"MOLECULE": "Nc1ccc(N=Nc2ccccc2)c(N)c1", "GROUP": "inactive"}
{"MOLECULE": "Cc1nc(Nc2ncc(C(=O)Nc3c(C)cccc3Cl)s2)cc(N2CCN(CCO)CC2)n1", "GROUP": "inactive"}
{"MOLECULE": "O=C1c2cccc3c2[C@H](CCC3)CN1[C@@H]1CN2CCC1CC2", "GROUP": "inactive"}
{"MOLECULE": "C=C(C)C(=O)OCc1ccccc1", "GROUP": "inactive"}
{"MOLECULE": "C1C2OC2C2C1C1CC2C2OC12 (stereo not drawn)", "GROUP": "inactive"}
{"MOLECULE": "O=C1CCCCCCCCCCCC(=O)OCCO1", "GROUP": "active"}
{"MOLECULE": "O=C(CS(=O)Cc1ccco1)NC/C=C\\COc1cc(CN2CCCCC2)ccn1 (stereo not drawn)", "GROUP": "inactive"}
{"MOLECULE": "CCCCOC(=O)c1ccccc1", "GROUP": "inactive"}
{"MOLECULE": "CC(=O)Oc1cccc2c1C(=O)c1c(OC(C)=O)cc(C(=O)O)cc1C2=O", "GROUP": "inactive"}
